This collection of values is drawn from patent US6140466.

- Target Of Assay: Zif268 fingers 1-3 (Mus musculus, UniProt P08046 SEQ:1-91)
- Run Description: SPR; zinc buffer (90 uM ZnCl2, 5 mM DTT); Kd from kon/koff
Assay Metric: Kd (nM)
Write the number in nM without appending the unit.

Memo: CCTGCGTGGGCGCCCTTTTGGGCGCCCACGCAGG (structured_DNA) [Z268N consensus hairpin] , reported Kd: 6.5
